Source listed as patent US11547697B2.

- measured.target: p110δ/p85α (Homo sapiens (Human))
- Sequence (O00329 whole entry): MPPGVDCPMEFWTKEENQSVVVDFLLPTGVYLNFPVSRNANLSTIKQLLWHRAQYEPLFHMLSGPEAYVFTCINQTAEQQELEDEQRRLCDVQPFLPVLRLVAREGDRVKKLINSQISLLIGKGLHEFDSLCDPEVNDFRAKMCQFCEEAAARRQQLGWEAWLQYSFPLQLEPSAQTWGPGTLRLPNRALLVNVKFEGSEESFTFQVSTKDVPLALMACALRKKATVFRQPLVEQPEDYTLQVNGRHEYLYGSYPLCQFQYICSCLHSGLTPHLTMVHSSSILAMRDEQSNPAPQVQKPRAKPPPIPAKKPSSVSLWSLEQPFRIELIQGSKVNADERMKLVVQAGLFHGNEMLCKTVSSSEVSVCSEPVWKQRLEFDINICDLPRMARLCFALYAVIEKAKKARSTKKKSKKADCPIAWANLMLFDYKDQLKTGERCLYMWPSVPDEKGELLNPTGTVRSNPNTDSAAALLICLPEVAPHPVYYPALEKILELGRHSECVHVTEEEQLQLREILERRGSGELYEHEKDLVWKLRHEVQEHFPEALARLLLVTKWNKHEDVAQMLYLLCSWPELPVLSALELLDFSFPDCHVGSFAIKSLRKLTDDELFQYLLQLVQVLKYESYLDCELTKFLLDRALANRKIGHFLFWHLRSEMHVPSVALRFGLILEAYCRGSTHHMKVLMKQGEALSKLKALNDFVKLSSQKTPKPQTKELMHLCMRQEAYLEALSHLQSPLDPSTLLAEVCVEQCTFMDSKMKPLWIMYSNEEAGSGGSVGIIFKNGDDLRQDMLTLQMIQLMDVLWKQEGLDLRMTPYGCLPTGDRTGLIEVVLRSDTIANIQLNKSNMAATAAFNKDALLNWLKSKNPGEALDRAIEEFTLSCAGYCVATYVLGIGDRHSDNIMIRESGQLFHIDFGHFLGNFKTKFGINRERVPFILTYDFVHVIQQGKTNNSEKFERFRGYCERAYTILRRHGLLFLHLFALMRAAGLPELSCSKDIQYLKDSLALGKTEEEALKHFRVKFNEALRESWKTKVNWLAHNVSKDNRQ
- Sequence (P27986 whole entry partner): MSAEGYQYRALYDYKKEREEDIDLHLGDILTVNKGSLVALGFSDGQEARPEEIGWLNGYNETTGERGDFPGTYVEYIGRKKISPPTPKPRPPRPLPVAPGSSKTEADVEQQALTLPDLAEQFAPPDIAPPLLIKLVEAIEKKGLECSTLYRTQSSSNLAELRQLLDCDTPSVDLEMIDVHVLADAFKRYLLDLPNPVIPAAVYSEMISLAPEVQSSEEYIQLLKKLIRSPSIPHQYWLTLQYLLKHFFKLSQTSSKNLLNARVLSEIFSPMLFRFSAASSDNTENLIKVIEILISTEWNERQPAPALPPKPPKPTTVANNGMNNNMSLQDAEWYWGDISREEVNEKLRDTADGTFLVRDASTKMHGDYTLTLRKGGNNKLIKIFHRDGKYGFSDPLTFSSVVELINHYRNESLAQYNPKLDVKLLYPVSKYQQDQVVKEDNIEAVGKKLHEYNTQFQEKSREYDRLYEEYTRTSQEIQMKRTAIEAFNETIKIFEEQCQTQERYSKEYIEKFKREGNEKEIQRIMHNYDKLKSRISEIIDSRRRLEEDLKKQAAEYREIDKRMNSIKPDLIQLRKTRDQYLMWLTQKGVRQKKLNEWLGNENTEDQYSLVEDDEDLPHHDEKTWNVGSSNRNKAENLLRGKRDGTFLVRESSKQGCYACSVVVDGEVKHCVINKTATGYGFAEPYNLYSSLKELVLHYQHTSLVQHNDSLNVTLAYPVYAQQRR
- method.description: PI 3-Kinase (human) HTRF assay, p110δ/p85α
- Format: biochemical
- condition.label: read-out: PI3K δ In Vitro IC50
# IC50 annotations

Here are 3 molecules together with their reported answers.
O=C(c1cnc2ccc(-c3cnc(Cl)c(NS(=O)(=O)c4ccc(F)cc4)c3)cn12)N1CCOCC1
< 0.1 µM
Cc1cc(-c2ccc3oc(N)nc3c2)cc2c(-c3ccncc3)cnn12
< 1 µM
O=C(c1cnc2ccc(-c3ccc(Cl)c(NS(=O)(=O)c4ccc(F)cc4F)c3)cn12)N1CCOCC1
< 10 µM

Lab note: measured IC50 of C[C@@H]1CN(C2CN(C(=O)c3cnc4ccc(-c5ccc6oc(N)nc6c5)cn34)C2)CCN1 was < 1 µM

Measured IC50 of O=C(c1cnc2ccc(-c3cccc(NS(=O)(=O)c4ccc(F)cc4F)c3)cn12)N1CCOCC1 : < 10 µM

----------
We begin with a simple list: items and their reported pIC50.
- measured.target: recombinant mTOR (Homo sapiens (Human), UniProt P42345)
- Sequence (P42345 1360-2549): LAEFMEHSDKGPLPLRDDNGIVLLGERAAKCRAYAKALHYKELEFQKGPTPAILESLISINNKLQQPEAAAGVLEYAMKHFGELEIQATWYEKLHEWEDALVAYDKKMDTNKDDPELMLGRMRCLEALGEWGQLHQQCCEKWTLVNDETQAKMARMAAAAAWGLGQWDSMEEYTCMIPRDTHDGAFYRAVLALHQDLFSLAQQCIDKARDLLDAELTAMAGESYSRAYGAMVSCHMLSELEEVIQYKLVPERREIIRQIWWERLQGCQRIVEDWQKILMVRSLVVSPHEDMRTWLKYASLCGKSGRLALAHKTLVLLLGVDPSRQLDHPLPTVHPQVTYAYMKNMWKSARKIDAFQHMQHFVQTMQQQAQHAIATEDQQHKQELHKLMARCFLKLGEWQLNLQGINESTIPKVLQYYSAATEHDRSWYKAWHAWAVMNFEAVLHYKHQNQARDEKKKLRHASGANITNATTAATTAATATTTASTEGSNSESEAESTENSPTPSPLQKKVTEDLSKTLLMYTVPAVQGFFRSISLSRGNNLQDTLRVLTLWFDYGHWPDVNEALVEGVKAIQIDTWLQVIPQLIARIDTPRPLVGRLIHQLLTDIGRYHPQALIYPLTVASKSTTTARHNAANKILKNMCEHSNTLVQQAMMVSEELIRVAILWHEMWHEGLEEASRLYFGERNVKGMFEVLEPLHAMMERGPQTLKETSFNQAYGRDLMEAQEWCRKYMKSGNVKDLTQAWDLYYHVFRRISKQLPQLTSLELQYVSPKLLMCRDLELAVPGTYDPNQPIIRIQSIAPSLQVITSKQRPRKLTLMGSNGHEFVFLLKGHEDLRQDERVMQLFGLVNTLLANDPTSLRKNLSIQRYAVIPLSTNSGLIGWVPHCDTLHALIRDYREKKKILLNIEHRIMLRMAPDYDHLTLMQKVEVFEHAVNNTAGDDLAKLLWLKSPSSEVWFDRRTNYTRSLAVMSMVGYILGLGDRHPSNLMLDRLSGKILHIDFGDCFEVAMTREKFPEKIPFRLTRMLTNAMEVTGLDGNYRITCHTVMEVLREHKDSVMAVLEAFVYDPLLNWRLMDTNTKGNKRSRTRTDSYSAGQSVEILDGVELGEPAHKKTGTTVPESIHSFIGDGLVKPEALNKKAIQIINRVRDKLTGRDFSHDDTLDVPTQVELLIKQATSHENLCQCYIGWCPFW
- method.description: mTOR inhibition assay (radiometric or LanthaScreen TR-FRET)
- Assay type: biochemical
- condition.label: in vitro; read-out: MTORC IC50
pIC50: −log10 of the molar value.

Reference set, count: 3
CC(=O)Nc1nc2ccc(-c3ccc4oc(N)nc4c3)cc2s1
> 5.00
Nc1nc2cc(-c3ccc4ncc(N5CC(C(=O)N6CCN(C7CC7)CC6)C5)nc4c3)ccc2o1
> 5.00
Nc1nc2cc(-c3ccc4ncc(N5CC(N6CCOCC6)C5)nc4c3)ccc2o1
> 6.00

Please fill in: pIC50 reported for CC(C)[C@@H](N)C(=O)N1CCN(c2cnc3ccc(-c4ccc5oc(N)nc5c4)cc3n2)CC1 = > 5.00

// Nc1nc2cc(-c3ccc4ncc(N5CCN(C(=O)[C@@H](N)CO)CC5)nc4c3)ccc2o1 : pIC50 value = > 5.00

For reference, reported pIC50 for CN(C)[C@@H]1CCN(c2cnc3ccc(-c4ccc5oc(N)nc5c4)cc3n2)C1 stands at > 6.00

----------
Form field: IC50 (one value per entry).
- measured.target: p110γ (Homo sapiens (Human))
- Sequence (P48736 whole entry): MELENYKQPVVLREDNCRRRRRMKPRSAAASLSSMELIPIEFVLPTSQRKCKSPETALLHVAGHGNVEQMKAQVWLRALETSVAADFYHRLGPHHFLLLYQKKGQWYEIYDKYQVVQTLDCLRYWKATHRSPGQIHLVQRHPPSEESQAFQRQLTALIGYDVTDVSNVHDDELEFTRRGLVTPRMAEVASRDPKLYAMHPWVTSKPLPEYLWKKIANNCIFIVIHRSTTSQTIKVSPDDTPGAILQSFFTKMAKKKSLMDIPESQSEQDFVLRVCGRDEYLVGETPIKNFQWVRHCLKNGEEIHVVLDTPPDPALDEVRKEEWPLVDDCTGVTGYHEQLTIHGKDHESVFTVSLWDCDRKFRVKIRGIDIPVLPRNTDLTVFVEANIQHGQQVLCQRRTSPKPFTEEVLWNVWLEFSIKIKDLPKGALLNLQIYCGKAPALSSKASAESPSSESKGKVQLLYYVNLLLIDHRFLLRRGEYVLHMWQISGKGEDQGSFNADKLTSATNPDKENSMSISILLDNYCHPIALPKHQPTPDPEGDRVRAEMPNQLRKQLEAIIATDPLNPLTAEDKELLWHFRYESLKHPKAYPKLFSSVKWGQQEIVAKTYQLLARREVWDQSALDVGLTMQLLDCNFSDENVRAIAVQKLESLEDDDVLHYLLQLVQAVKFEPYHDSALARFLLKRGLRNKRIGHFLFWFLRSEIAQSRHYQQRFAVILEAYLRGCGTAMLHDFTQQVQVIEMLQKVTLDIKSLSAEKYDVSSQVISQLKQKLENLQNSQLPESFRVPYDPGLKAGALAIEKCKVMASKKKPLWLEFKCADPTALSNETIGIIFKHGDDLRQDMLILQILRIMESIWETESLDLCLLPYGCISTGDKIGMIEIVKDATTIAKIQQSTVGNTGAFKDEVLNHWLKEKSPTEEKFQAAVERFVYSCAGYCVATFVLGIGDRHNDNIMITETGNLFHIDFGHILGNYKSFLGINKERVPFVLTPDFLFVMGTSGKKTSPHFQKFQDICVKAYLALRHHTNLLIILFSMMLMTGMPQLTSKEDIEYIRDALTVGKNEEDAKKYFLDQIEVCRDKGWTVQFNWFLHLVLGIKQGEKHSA
- method.description: PI 3-Kinase (human) HTRF assay, p110γ
- Type: biochemical
- condition.label: read-out: PI3K γ IC50

Reference set (5 entries):
CN1CCN(c2cc(-c3ccnc4ccc(-c5ccc6oc(N)nc6c5)cc34)ccn2)CC1 [compound 30]
< 0.1 µM
CCOC(=O)N1CCN(c2cnc3ccc(-c4ccc5oc(N)nc5c4)cc3n2)CC1 [compound 119]
< 10 µM
Nc1nc2ccc(-c3ccc4ncc(C(=O)N5CCOCC5)n4c3)cc2o1 [compound 124]
< 1 µM
Nc1nc2cc(-c3ccc4ncc(C(=O)N5CCN(CCO)CC5)n4c3)ccc2o1 [compound 148]
< 10 µM
CN1CCN(c2cnc3ccc(-c4ccc5nc(N)sc5c4)cc3n2)CC1 [compound 115]
< 10 µM

Nc1nc2cc(-c3ccc4ncc(N5CCS(=O)(=O)CC5)nc4c3)ccc2o1 [compound 98] yielded IC50 of < 0.1 µM

IC50 in this record for CN1CCN(C(=O)c2cnc3ccc(-c4ccc5oc(N)nc5c4)nn23)CC1 [compound 104] : < 10 µM

Documented IC50 of Nc1nc2cc(-c3ccc4ncc(N5CC(C(=O)N6CCOCC6)C5)nc4c3)ccc2o1 [compound 169] : < 1 µM
